- Tested on: RPMI-8226 leukemia
- procedureDetails: NCI-60 one-dose screen, 48 h (100 = growth as untreated, 0 = no growth, -100 = all killed)
- conditionSet: 10 µM unless noted
About 83,000 compounds went through this panel and 20% of them were active in at least one assay; those are over-represented in the sample as a whole.
Some molecules, each annotated with its measured growth.
Give your result in % as a bare value.

> print(dat)
                                   molecule  metric  number
1  CCOc1cc(\C=N/N=C(N)/C(N)=N\N=C/c2ccc(O)c(OCC)c2)ccc1O  growth    94.8
2  O=C1c2ccccc2-c2c1c1ccncc1c(=O)n2CCCn1ccnc1  growth    34.1
3  Cc1[nH]c(C(=O)Nc2ccccc2OC2CCNC2)c(Cl)c1Cl (stereo not given)  growth      79
4  Cn1cc(-c2csc(-c3cn(CCO)c4ccc(F)cc34)n2)c2cccnc21  growth    62.6
5       C=CCNc1nc(O)c(/C=C2\C=Nc3ncccc32)s1  growth    42.7
6  COc1ccc(-n2c(=O)n(-c3ccc(-c4nc5ccc(F)cc5s4)cc3)c(=O)c3cccnc32)cc1  growth    91.6
7  CCCC1Cc2cc(-n3nc(C)c4c3CC(C)(C)CC4=O)cc(NC3CCC(O)CC3)c2C(=O)N1 (stereo not given)  growth      51
8  CC(C)(C)n1cc(-c2ccnc(NCCNS(=O)(=O)c3cccc4ccccc34)c2)c(-c2cccc(O)c2)n1  growth    27.4
9  COc1ccc(S(=O)(=O)NC2c3ccccc3CC2O)cc1OC (stereo not given)  growth     104

Req: Any idea what its growth is? The molecule is `Cc1ccc(OCCOCCOCCOCCOc2ccc(C)n(O)c2=S)c(=S)n1O`
Resp: 13.4
